- assay-procedure: Stability of compound in simulated gastric fluid assessed as compound degradation measured up to 24 hrs relative to control
- Format: physicochemical
- details: read-out: Drug degradation
value-type: degraded at 24 h (%)
Write the value in % as a bare number.

QUERY: GET /values?readout=degraded at 24 h&item= COC(=O)CNC(=O)[C@H](Cc1ccccc1)NC(=O)c1cc2cc(Cl)ccc2[nH]1
RESULT: 50

###

- assay-procedure: Intrinsic clearance in mouse liver microsomes
- Type: ADME, Microsome
Assign CLint to each entry below.
Write the value in µL/min/mg as a bare number.

QUERY: GET /values?readout=CLint&item= O=C(O)Cc1ccccc1Nc1c(Cl)cccc1Cl [DICLOFENAC]
RESULT: 51.2

QUERY: GET /values?readout=CLint&item= COC(=O)CNC(=O)[C@H](Cc1ccccc1)NC(=O)c1cc2cc(Cl)ccc2[nH]1
RESULT: 90

Recorded values, source ChEMBL document CHEMBL4622898.
